# Tested on: Chinese hamster ovary cell line (CHO-K1)
# Assay procedure: Genotoxicity in the micronucleus test in CHO-K1 cells
# Type: cell-based
# Conditions used: 200 µM
Measured NDI (nuclear division index) values are reported for all entries that follow.

# example entries with known answers
Compound | NDI (nuclear division index)
Cc1ccc(/C=C/C(=O)NCCCCCO)cc1 | 1.52
CC(CO)NC(=O)/C=C/c1ccc(Cl)cc1 (stereo not drawn) | 1.60
CCC(O)CNC(=O)/C=C/c1ccc(Cl)cc1 (stereo not drawn) | 1.62
O=C(/C=C/c1ccc(Cl)cc1)NCCCCCO | 1.64

Input line: Test system Chinese hamster ovary cell line (CHO-K1); read-out NDI (nuclear division index); what value for O=C(/C=C/c1ccccc1)NCCCCCCO ?
Output line: 1.60

Input line: Test system Chinese hamster ovary cell line (CHO-K1); read-out NDI (nuclear division index); what value for O=C(/C=C/c1ccccc1)NCCCCCO ?
Output line: 1.66

* * *

Measured Increase in the number of yellow wells compared to the reference level values are reported for all entries that follow.
# Tested on: S. typhimurium TA1535
# Assay procedure: Ames microplate test, TA1535;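 note: bacteria exposed to compound 90 min at 37 °C, then kept 48 h at 37 °C with indicator medium in 384-well plates, scoring wells that turned yellow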
# Conditions used: 0.5 mM, without S9

Input line: Any idea what Increase in the number of yellow wells compared to the reference level was measured for O=C(/C=C/c1ccccc1)NCCCCCCO ?
Output line: 1.04

Input line: Any idea what Increase in the number of yellow wells compared to the reference level was measured for CC(CO)NC(=O)/C=C/c1ccc(Cl)cc1 (stereo not drawn) ?
Output line: 0.55

Input line: Any idea what Increase in the number of yellow wells compared to the reference level was measured for O=C(/C=C/c1ccccc1)NCCCCCO ?
Output line: 0.92

Input line: Any idea what Increase in the number of yellow wells compared to the reference level was measured for CCC(O)CNC(=O)/C=C/c1ccc(Cl)cc1 (stereo not drawn) ?
Output line: 0.30

Input line: Any idea what Increase in the number of yellow wells compared to the reference level was measured for O=C(/C=C/c1ccc(Cl)cc1)NCCCCCO ?
Output line: 0.55

Input line: Any idea what Increase in the number of yellow wells compared to the reference level was measured for Cc1ccc(/C=C/C(=O)NCCCCCO)cc1 ?
Output line: 0.21

* * *

# System: E. coli WP2
# Assay procedure: Ames microplate test, E. coli WP2;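 note: bacteria treated 90 min at 37 °C in 24-well plates, then indicator medium dispensed to 384-well plates and incubated 48 h before yellow-well counting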
# Conditions used: 0.5 mM, +S9
Measured Increase in the number of yellow wells compared to the reference level values are reported for all entries that follow.
Write the number on its own, no unit after it.

Molecule | Assay value
O=C(/C=C/c1ccc(Cl)cc1)NCCCCCO | 0.62
O=C(/C=C/c1ccccc1)NCCCCCO | 0.27
CCC(O)CNC(=O)/C=C/c1ccc(Cl)cc1 (stereo not shown) | 0.83

We now examine a further molecule.
Input line: Test system E. coli WP2; read-out Increase in the number of yellow wells compared to the reference level; what value for O=C(/C=C/c1ccccc1)NCCCCCCO ?
Output line: 0.75

* * *

Measured Increase in the number of yellow wells compared to the reference level values are reported for all entries that follow.
# Test system: S. typhimurium TA100
# Assay procedure: Ames microplate test, TA100;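 note: reference level is the mean solvent-control yellow wells plus SD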
# Assay type: cell-based, Salmonella typhimurium
# Conditions used: 1.0 mM, +S9
Write the number on its own, no unit after it.

# example entries with known answers
Compound | Assay value
O=C(/C=C/c1ccccc1)NCCCCCO | 0.78
O=C(/C=C/c1ccccc1)NCCCCCCO | 0.69
O=C(/C=C/c1ccc(Cl)cc1)NCCCCCO | 0.47

We now examine a further compound.
Input line: Any idea what Increase in the number of yellow wells compared to the reference level was measured for CCC(O)CNC(=O)/C=C/c1ccc(Cl)cc1 (stereo not shown) ?
Output line: 0.64

* * *

# Tested on: Primary melanocytes
# Assay procedure: Safety, LDH test in primary melanocytes
# Type: cell-based
# Conditions used: 200 µM; 48 hours; positive control Triton X-100
Attribute measured: Primary melanocytes LDH

# example entries with known answers
Smiles repr | Target or test system | Assay value
O=C(/C=C/c1ccc(Cl)cc1)NCCCO | Primary melanocytes | 10.91 percentage of positive control
O=C(/C=C/c1ccccc1)NCCCCCO | Primary melanocytes | 16.71 percentage of positive control
O=C(/C=C/c1ccc(Cl)cc1)NCCCCCO | Primary melanocytes | 13.38 percentage of positive control
Cc1ccc(/C=C/C(=O)NCCCCCO)cc1 | Primary melanocytes | 8.34 percentage of positive control

Input line: Any idea what Primary melanocytes LDH was measured for O=C(/C=C/c1ccc(Cl)cc1)NCCO ?
Output line: 4.31 percentage of positive control

* * *

# Test system: Fibroblasts (BJ)
# Assay procedure: Safety, MTT test in fibroblasts
# Format: cell-based
# Conditions used: 150 µM; 48 hours
# Source text: In order to test the safety of the compounds, both normal human cells were used: keratinocytes (HaCaT), fibroblasts (BJ), primary melanocytes that occur in the skin, as well as human cancer cells: the hepatocarcinoma line HepG2 and the neuroblastoma line SH-SY5Y, which are considered a model for the assessment of hepatocytotoxicity and neurocytotoxicity. […] The absorbance at 570 nm, which corresponds to the absorption maximum for the product, is directly proportional to cell viability. […]
Attribute measured: Fibroblasts (BJ) MTT

Smiles repr | Fibroblasts (BJ) MTT
O=C(/C=C/c1ccc(Cl)cc1)NCCCO | 94.85±3.51 % of solvent control
O=C(/C=C/c1ccccc1)NCCCCCO | 91.68±3.64 % of solvent control
O=C(/C=C/c1ccc(Cl)cc1)NCCO | 100.76±3.34 % of solvent control
O=C(/C=C/c1ccc(Cl)cc1)NCCCCCO | 100.94±3.37 % of solvent control

We now examine a further molecule.
Input line: Any idea what Fibroblasts (BJ) MTT was measured for Cc1ccc(/C=C/C(=O)NCCCCCO)cc1 ?
Output line: 101.92±2.88 % of solvent control

* * *

# System: neuroblastoma SH-SY5Y
# Assay procedure: Safety, LDH test in SH-SY5Y
# Assay type: cell-based
# Conditions used: 200 µM; 48 hours; positive control Triton X-100
Measured Neuroblastoma SH-SYSY LDH values are reported for all entries that follow.

Smiles repr | Target or test system | Assay value
O=C(/C=C/c1ccc(Cl)cc1)NCCO | neuroblastoma SH-SY5Y | 5.98 percentage of positive control
O=C(/C=C/c1ccccc1)NCCCCCO | neuroblastoma SH-SY5Y | 8.49 percentage of positive control
O=C(/C=C/c1ccc(Cl)cc1)NCCCO | neuroblastoma SH-SY5Y | 8.35 percentage of positive control
O=C(/C=C/c1ccc(Cl)cc1)NCCCCCO | neuroblastoma SH-SY5Y | 5.98 percentage of positive control

We now examine a further compound.
Input line: Any idea what Neuroblastoma SH-SYSY LDH was measured for Cc1ccc(/C=C/C(=O)NCCCCCO)cc1 ?
Output line: 8.92 percentage of positive control

* * *

# System: S. typhimurium TA98
# Assay procedure: Ames microplate test, TA98;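 note: reference level is the mean solvent-control yellow wells plus SD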
# Format: cell-based, Salmonella typhimurium
# Conditions used: 1.0 mM, +S9
Attribute measured: Increase in the number of yellow wells compared to the reference level

Molecule | Assay value
O=C(/C=C/c1ccccc1)NCCCCCO | 0.67
O=C(/C=C/c1ccccc1)NCCCCCCO | 0.42
CCC(O)CNC(=O)/C=C/c1ccc(Cl)cc1 (stereo not shown) | 0.94

We now examine a further molecule.
Input line: Any idea what Increase in the number of yellow wells compared to the reference level was measured for O=C(/C=C/c1ccc(Cl)cc1)NCCCCCO ?
Output line: 0.83

* * *

# Tested on: Fibroblasts (BJ)
# Assay procedure: Safety, LDH test in fibroblasts
# Type: cell-based
# Conditions used: 250 µM; 48 hours; positive control Triton X-100
Attribute measured: Fibroblasts (BJ) LDH

# example entries with known answers
Smiles repr | Fibroblasts (BJ) LDH
Cc1ccc(/C=C/C(=O)NCCCCCO)cc1 | 16.63 percentage of positive control
O=C(/C=C/c1ccccc1)NCCCCCO | 28.31 percentage of positive control
O=C(/C=C/c1ccc(Cl)cc1)NCCCCCO | 14.90 percentage of positive control
O=C(/C=C/c1ccc(Cl)cc1)NCCO | 17.32 percentage of positive control

Input line: Any idea what Fibroblasts (BJ) LDH was measured for O=C(/C=C/c1ccc(Cl)cc1)NCCCO ?
Output line: 28.74 percentage of positive control

* * *

# Tested on: Chinese hamster ovary cell line (CHO-K1)
# Assay procedure: Genotoxicity in the micronucleus test in CHO-K1 cells
# Type: cell-based
# Conditions used: 200 µM
Mark y for reported NB (nuclear buds in 1000 binucleate cells) of 5 or greater; mark n for anything smaller.

Compound | Group label
Cc1ccc(/C=C/C(=O)NCCCCCO)cc1 | y
O=C(/C=C/c1ccccc1)NCCCCCCO | y
O=C(/C=C/c1ccccc1)NCCCCCO | n

Input line: Tell me whether NB (nuclear buds in 1000 binucleate cells) is at least 5 here: CCC(O)CNC(=O)/C=C/c1ccc(Cl)cc1 (stereo not drawn)
Output line: y

Input line: Tell me whether NB (nuclear buds in 1000 binucleate cells) is at least 5 here: CC(CO)NC(=O)/C=C/c1ccc(Cl)cc1 (stereo not drawn)
Output line: n

Input line: Tell me whether NB (nuclear buds in 1000 binucleate cells) is at least 5 here: O=C(/C=C/c1ccc(Cl)cc1)NCCCCCO
Output line: n

Data origin: patent EP4324461A1
